- subject-of-test: Aurora A (Homo sapiens (Human), UniProt O14965)
- Sequence (O14965 whole entry): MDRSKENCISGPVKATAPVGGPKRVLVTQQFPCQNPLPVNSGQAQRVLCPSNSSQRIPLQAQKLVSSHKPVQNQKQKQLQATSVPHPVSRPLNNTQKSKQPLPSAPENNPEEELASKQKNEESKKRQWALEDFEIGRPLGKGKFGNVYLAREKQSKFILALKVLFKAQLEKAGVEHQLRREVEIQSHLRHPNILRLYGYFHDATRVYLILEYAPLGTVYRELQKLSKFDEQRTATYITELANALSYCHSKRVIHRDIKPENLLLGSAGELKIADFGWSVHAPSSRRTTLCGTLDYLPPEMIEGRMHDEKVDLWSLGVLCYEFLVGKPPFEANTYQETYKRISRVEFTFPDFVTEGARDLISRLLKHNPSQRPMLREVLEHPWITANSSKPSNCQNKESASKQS
- test: Aurora A degradation assay (western blot)
- Type: cell-based
- study-conditions: read-out: Aurora A Dmax
parameter: Dmax (%)

>>> df
                                   compound  unit_string  reported_value
0  CCc1c[nH]c2ncc(-c3cccc(N4CCCN(CCC5CCN(c6ccc(NC7CCC(=O)NC7=O)cc6F)CC5)C4=O)c3)c(Cl)c12 (stereo not shown)            %              75
1  CCc1c[nH]c2ncc(-c3cccc(N4CCCN(CC5CCN(c6ccc7c(c6)C(=O)N(C6CCC(=O)NC6=O)C7=O)CC5)C4=O)c3)c(Cl)c12 (stereo not shown)            %              95
2  O=C1CCC(N2C(=O)c3cc(F)c(N4CCC(CCN5CCCN(c6cccc(-c7cnc8[nH]cc(C9CC9)c8c7Cl)c6)C5=O)CC4)cc3C2=O)C(=O)N1 (stereo not shown)            %              50
3  CCc1c[nH]c2ncc(-c3cccc(N4CCCN(CC5CCN(c6ccc(NC7CCC(=O)NC7=O)cc6F)CC5)C4=O)c3)c(Cl)c12 (stereo not shown)            %              82
